methodDescription: Solubility in sodium phosphate buffer
Assay type: physicochemical
assaySetup: sodium phosphate buffer 0.1 M pH 7.4, 25°C, mean±SD
Description: An excess amount of MMU was added to a vial containing sodium phosphate buffer, 0.1 M pH 7.4 (0.25 mL), and the MMU suspension was equilibrated during 1 h of sonication and 48 h of shaking at 25°C, followed by centrifugation. The amount of MMU in the supernatant was analyzed by LC—MS/MS. The result is presented as mean ± SD of triplicate measurement.

smilesInput	unitName	solubility at 48 h
COc1ccc(CNC(=O)NCc2ccc(OC)cc2)cc1	µM	10.6

---

IC50: recorded values
targetSystem: recombinant human sEH (Homo sapiens)
Construct: made in house; host or cells: insect High Five cells, recombinant baculovirus
Sequence (P34913 whole entry): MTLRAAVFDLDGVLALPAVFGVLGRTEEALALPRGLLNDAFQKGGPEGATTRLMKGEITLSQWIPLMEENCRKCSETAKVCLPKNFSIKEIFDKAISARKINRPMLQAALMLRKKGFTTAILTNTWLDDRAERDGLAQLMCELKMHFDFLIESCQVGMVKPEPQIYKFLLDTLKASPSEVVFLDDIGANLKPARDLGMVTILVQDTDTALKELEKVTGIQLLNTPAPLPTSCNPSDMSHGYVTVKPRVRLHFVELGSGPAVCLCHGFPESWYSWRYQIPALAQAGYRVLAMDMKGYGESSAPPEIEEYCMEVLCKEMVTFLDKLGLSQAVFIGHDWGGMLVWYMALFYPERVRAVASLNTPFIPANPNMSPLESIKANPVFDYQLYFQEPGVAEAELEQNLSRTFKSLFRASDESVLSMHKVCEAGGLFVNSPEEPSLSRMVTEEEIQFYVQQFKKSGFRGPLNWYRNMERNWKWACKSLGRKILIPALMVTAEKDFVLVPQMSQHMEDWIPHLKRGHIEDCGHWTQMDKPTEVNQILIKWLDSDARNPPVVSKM
methodDescription: sEH inhibition by fluorescent assay (CMNPC assay), human
Type: biochemical
assaySetup: recombinant human sEH 0.96 nM, [S] = 5 μM, mean ± SD of three measurements
reportedMetric: IC50

smilesInput	targetSystem	dataValue
COc1ccc(CNC(=O)NCc2ccccc2)cc1	recombinant human sEH (Homo sapiens)	400 nM
COc1ccc(CNC(=O)NCc2ccc(OC)cc2)cc1	recombinant human sEH (Homo sapiens)	92 nM
O=C(NCc1ccccc1)NCc1ccccc1	recombinant human sEH (Homo sapiens)	1900 nM

Where these numbers come from: paper PMC4319826
